Field: %Inh. Provide a value for each of the molecules that follow.
# Test system: RSK3(Kin.Dom.2-C-terminal)
# Construct: gene RPS6KA2
# test context: concentration: 1 μM, replicates: in singlicate; n = 1;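 note: KINOMEscan kinase panel screen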
Value expressed in %; do not type the unit.

Measured %Inh, COc1cc(Nc2nccc(N3CCC(NC(=O)C(C)c4ccc(Cl)cc4)C3)n2)cc(OC)c1OC (stereo not shown) : 0

Measured %Inh, `CN(C)c1cc(-c2ccc3c(N)n[nH]c3c2)nc(N)n1` : 4

Measured %Inh, `CN1C(=O)C(Nc2ccccc2)=C(c2ccccc2)C1=O` : 0

Measured %Inh, `O=C(Nc1n[nH]c2nc(-c3ccccc3)c(Br)cc12)C1CC1` : 0

Measured %Inh, `Nc1nc(-c2ccccc2F)c(-c2ccnc3ccccc23)s1` : 1

Measured %Inh, `Cc1ccc(Oc2ccc(Nc3ncnc4cc[nH]c34)cc2C)cn1` : 16

Measured %Inh, `Cc1nc(N(C)[C@H]2CN(C(=O)CC#N)CC[C@H]2C)c2cc[nH]c2n1` : 12

###

Field: %Inh. Provide a value for each of the compounds that follow.
# System: IGF1R
# test context: concentration: 1 μM, replicates: in singlicate; n = 1
Write the figure, then the unit, nothing else.

Measured %Inh, COc1cc2ncn(-c3cc(OCc4ccncc4)c(C(N)=O)s3)c2cc1OC [GSK336313] : 0%

Measured %Inh, OCCCNc1nccc(-c2c(-c3cccc(C(F)(F)F)c3)nn3cc(C(F)(F)F)ccc23)n1 [GW630813] : 8%

Measured %Inh, Nc1n[nH]c2nnc(-c3ccccc3)c(-c3ccccc3)c12 [GW554060] : 0%

###

# System: CSNK1D
# test context: concentration: 1 μM, replicates: in singlicate; n = 1
Field: %Inh. Provide a value for each of the compounds that follow.
Value expressed in %; do not type the unit.

Measured %Inh, `Cc1cccc(-c2nc(Nc3ccc4c(cnn4C)c3)c3ccccc3n2)n1` : 50

Measured %Inh, `Cc1c(Cn2c(C)nn3c(=O)cc(N4CCO[C@H](C)C4)nc23)cccc1C(F)(F)F` : 25

Measured %Inh, `FC(F)(F)c1ccc(-c2ncn(CCCN3CCOCC3)c2-c2ccncc2)cc1` : 0

Measured %Inh, `CCC(=O)c1c(-c2ccccc2)c2cc(Cl)ccc2c(=O)n1Cc1cc(S(C)(=O)=O)n(CCC(C)(C)O)n1` : 8

Measured %Inh, `CN1C(=O)C(Nc2ccccc2)=C(c2ccccc2)C1=O` : 0

Measured %Inh, `CCC(=O)c1c(-c2ccccc2)c2cc(Cl)ccc2c(=O)n1Cc1cc(S(C)(=O)=O)n(CC(F)F)n1` : 0

Measured %Inh, `O=C1NC(=O)C(c2ccccc2)=C1Nc1cccc(O)c1` : 0

Measured %Inh, `Nc1nccc2scc(-c3ccc4c(c3)CCN4C(=O)Cc3ccccc3)c12` : 13

Measured %Inh, `CCC(=O)c1c(-c2ccccc2)c2cc(Cl)ccc2c(=O)n1Cc1ccc(C(=O)O)cc1` : 0

Measured %Inh, `Nc1ncnc2c1ncn2-c1cccc(F)c1` : 26

Measured %Inh, `Cc1nn2c(=O)cc(N3CCOCC3)nc2n1Cc1cccc(Cl)c1Cl` : 4

###

Field: %Inh. Provide a value for each of the compounds that follow.
# System: TBK1
# test context: concentration: 1 μM, replicates: in singlicate; n = 1
Value expressed in %; do not type the unit.

Measured %Inh, `OCCCNc1nccc(-c2c(-c3cccc(C(F)(F)F)c3)nn3cc(C(F)(F)F)ccc23)n1` : 10

Measured %Inh, `CCC(=O)c1c(-c2ccccc2)c2cc(Cl)ccc2c(=O)n1Cc1cc(C(=O)NC2CC2)n(C)n1` : 0

Measured %Inh, `COc1ccc(-c2cc3c(C)nc(N)nc3n([C@H]3CC[C@H](O)CC3)c2=O)cn1` : 90

Measured %Inh, `CCC(=O)c1c(-c2ccccc2)c2cc(Cl)ccc2c(=O)n1Cc1cc(S(C)(=O)=O)n(CC(N)=O)n1` : 12

Measured %Inh, `COc1cc2ncn(-c3cc(OCc4ccncc4Br)c(C(N)=O)s3)c2cc1OC` : 24

Measured %Inh, `COc1ccc(-c2cc3c(C)nc(N)nc3n([C@H]3CC[C@H](OCCO)CC3)c2=O)cn1` : 6

Measured %Inh, `CCn1c(-c2ccoc2)nc2cnccc21` : 12

Measured %Inh, COc1cc(Nc2nccc(N3CCC(NC(=O)C(C)c4ccc(Cl)cc4)C3)n2)cc(OC)c1OC (stereo not shown) : 14

Measured %Inh, `Cl.NS(=O)(=O)c1cccc(Nc2cc(-c3ccc(F)cc3)n[nH]2)c1` : 35

Measured %Inh, `COc1ccc(-c2coc3ccc(-c4nnc(SCc5cccc(C#N)c5)o4)cc23)cc1` : 10

Measured %Inh, `CCCC(=O)Nc1n[nH]c2ncc(-c3cccc4ccccc34)cc12` : 27

Measured %Inh, COc1ccc(Nc2nccc(N3CCC(NS(=O)(=O)c4ccc(NC(C)=O)cc4)C3)n2)cc1 (stereo not shown) : 11

Measured %Inh, `Nc1n[nH]c2nnc(-c3ccccc3)c(-c3ccccc3)c12` : 8

Measured %Inh, `COc1cccc(-n2cnc3c(N)ncnc32)c1` : 31

Measured %Inh, COc1cc(Nc2nccc(N3CCC(NC(=O)C4COc5ccccc5O4)C3)n2)cc(OC)c1OC (stereo not shown) : 0

Measured %Inh, `CN1C(=O)C(Nc2ccccc2)=C(c2ccccc2)C1=O` : 21

Measured %Inh, COc1ccc(CNC(=O)NC2CCN(c3ccnc(Nc4ccc(F)cc4)n3)C2)cc1 (stereo not shown) : 27

Measured %Inh, `COc1cccc(C2=C(N(C)c3ccccc3)C(=O)NC2=O)c1` : 3

Measured %Inh, `COC(=O)c1c(-c2ccccc2)c2cc(Br)ccc2c(=O)n1Cc1ccc(NC(=O)CCC(=O)O)cc1` : 22
